- target-entity: OXA-1 β-lactamase (Escherichia coli, UniProt P13661)
- Sequence (P13661 26-276): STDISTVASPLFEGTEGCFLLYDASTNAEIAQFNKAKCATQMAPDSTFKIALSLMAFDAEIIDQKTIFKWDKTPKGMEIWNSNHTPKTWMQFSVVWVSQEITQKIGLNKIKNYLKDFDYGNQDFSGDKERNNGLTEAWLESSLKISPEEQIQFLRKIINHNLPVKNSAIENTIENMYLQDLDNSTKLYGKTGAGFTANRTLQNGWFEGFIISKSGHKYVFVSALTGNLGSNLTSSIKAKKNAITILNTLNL
- method-description: Inhibition of class D β-lactamase OXA-1
- Type: biochemical
pKi: −log10 of the molar value.

compound | target-entity | pKi
O=C(OP(=O)([O-])OC(=O)c1cc2ccccc2o1)c1cc2ccccc2o1.[Na+] [compound 12] | OXA-1 β-lactamase (Escherichia coli, UniProt P13661) | 4.85

###

- target-entity: Enterobacter cloacae P99 β-lactamase (Enterobacter cloacae, UniProt P05364)
- Sequence (P05364 21-381): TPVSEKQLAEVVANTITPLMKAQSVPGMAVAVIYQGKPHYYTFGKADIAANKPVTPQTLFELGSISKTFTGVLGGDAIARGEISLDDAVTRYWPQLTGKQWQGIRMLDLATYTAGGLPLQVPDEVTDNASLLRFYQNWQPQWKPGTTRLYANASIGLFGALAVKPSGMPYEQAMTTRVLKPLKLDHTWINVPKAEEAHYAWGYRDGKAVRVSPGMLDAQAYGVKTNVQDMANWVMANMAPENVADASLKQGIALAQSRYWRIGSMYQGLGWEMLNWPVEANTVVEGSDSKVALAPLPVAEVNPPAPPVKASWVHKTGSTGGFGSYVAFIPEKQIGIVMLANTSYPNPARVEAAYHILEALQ
- method-description: biochemical

smiles-structure | u | Ki
O=C(OP(=O)([O-])OC(=O)c1cc2ccccc2o1)c1cc2ccccc2o1.[Na+] | nM | 1300

###

- target-entity: Enterobacter cloacae P99 β-lactamase (Enterobacter cloacae)
- setup-conditions: read-out: P99 K1
The following compounds are shown together with reported Ki values.

compound | Ki
O=C(OP(=O)(O)OC(=O)c1ccccc1)c1ccccc1 [compound 5, dibenzoyl phosphate] | 1330 nM
O=C(OP(=O)([O-])OC(=O)c1cc2ccccc2s1)c1cc2ccccc2s1.[Na+] | 3 nM

###

- target-entity: Escherichia coli W3310 TEM-2 β-lactamase (Escherichia coli, UniProt P62593, Q37K)
- method-description: Inhibition and turnover kinetics with TEM-2 β-lactamase
- setup-conditions: read-out: TEM Ki; footnote a: calculated from Ki = k2/ki

molecule | Ki [µM]
O=C(OP(=O)(O)OC(=O)c1ccccc1)c1ccccc1 [compound 5, dibenzoyl phosphate] | 76

The measured values listed here are drawn from paper PMC2896318.
